System: E. coli P-51213
Assay: microbe, parasite or virus in culture
Type: cell-based
Details: Escherichia coli, P51213, 20 h; read-out: minimum inhibitory concentrations (MIC)
Hi! Just check whether MIC is below 0.05 mg/L. Below gives true, equal or above gives false.

molecule | discrete label
C[C@H]1CN(c2c(F)c(N)c3c(=O)c(C(=O)O)cn(C4CC4)c3c2F)C[C@H]1CN.Cl (relative stereo) | true
CC1CN(c2c(F)c(F)c3c(=O)c(C(=O)O)cn(C4CC4)c3c2F)CCN1 (stereo not shown) | false
C[C@@H]1CN(c2c(F)c(N)c3c(=O)c(C(=O)O)cn(C4CC4)c3c2F)C[C@H]1N (relative stereo) | true
CCn1cc(C(=O)O)c(=O)c2c(N)c(F)c(N3CCNCC3)c(F)c21 [Compound A, reference compound] | false

----------
Test: in vivo
Set-up: species or system mice
Details: mouse, urine and feces, iv, 5 mg/kg; read-out: Total recovery
measured quantity: dose excreted at 24 h (%)

compound | quantitative readout
CC1CN(c2c(F)c(F)c3c(=O)c(C(=O)O)cn(C4CC4)c3c2F)CCN1 (stereo not shown) | 77.6

----------
Assay: in vivo
Set-up: species or system mice
Conditions: mouse, urine, iv, 5 mg/kg; read-out: Urine recovery

compound | dose excreted at 24 h
CC1CN(c2c(F)c(F)c3c(=O)c(C(=O)O)cn(C4CC4)c3c2F)CCN1 (stereo not shown) | 63.6%

----------
Test system: S. aureus No. 50774
Assay: microbe, parasite or virus in culture
Assay type: cell-based
Conditions: Staphylococcus aureus, NO.50774, 20 h; read-out: minimum inhibitory concentrations (MIC)
// log10 of MIC lookup, one value per entry
measured quantity: log10 of MIC (log10 of the value in µg/mL)

compound | log10 of MIC
C[C@H]1CN(c2c(F)c(N)c3c(=O)c(C(=O)O)cn(C4CC4)c3c2F)C[C@H]1CN.Cl (relative stereo) | -2.51
CCn1cc(C(=O)O)c(=O)c2c(N)c(F)c(N3CCNCC3)c(F)c21 [Compound A, reference compound] | -0.70
C[C@H]1CN(c2c(F)c(F)c3c(=O)c(C(=O)O)cn(C4CC4)c3c2F)C[C@H]1N (relative stereo) | -1.30
C[C@@H]1CN(c2c(F)c(N)c3c(=O)c(C(=O)O)cn(C4CC4)c3c2F)C[C@H]1N (relative stereo) | -1.90
CC1CN(c2c(F)c(F)c3c(=O)c(C(=O)O)cn(C4CC4)c3c2F)CCN1 (stereo not shown) | -0.70
CCC1(N)CCN(c2c(F)c(N)c3c(=O)c(C(=O)O)cn(C4CC4)c3c2F)C1 (stereo not shown) | -1.60
CC1(N)CCN(c2c(F)c(N)c3c(=O)c(C(=O)O)cn(C4CC4)c3c2F)C1 (stereo not shown) | -1.60

----------
Assay: in vivo
Design: species or system mice
Conditions: mouse, feces, iv, 5 mg/kg; read-out: Feces recovery
measured quantity: dose excreted at 24 h (%)

compound | quantitative readout
CC1CN(c2c(F)c(F)c3c(=O)c(C(=O)O)cn(C4CC4)c3c2F)CCN1 (stereo not shown) | 14

----------
Test: in vivo
Design: species or system mice
Settings: mouse, urine, po, 5 mg/kg; read-out: Urine recovery

molecule | dose excreted at 24 h, %
CC1CN(c2c(F)c(F)c3c(=O)c(C(=O)O)cn(C4CC4)c3c2F)CCN1 (stereo not shown) | 63.4
